tested on: malignant CLL cells; format: cell-based; conditions: CLL whole blood samples, 24 hours incubation, FIG. 8
Documented induction of apoptosis after 24 hours across a set of molecules
ASSAY READOUT: induction of apoptosis after 24 hours

* O=C1c2c(O)ccc(O)c2C(=O)c2c(NCCNCCO)ccc(NCCNCCO)c21 | ~50%
* O=C(O)CCCc1ccc(N(CCCl)CCCl)cc1 | ~45%

Values from patent US20170205395A1
